B1: Hairpin Ribozyme (parent)
chain: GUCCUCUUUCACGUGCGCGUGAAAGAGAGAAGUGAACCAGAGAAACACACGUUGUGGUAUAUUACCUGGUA

Variants of: B1
Protocol description: self-cleavage, relative activity (ratio to wild type); higher = more cleavage; co-transcriptional
# cutoff 0.2 applies to self-cleavage; >= gives fulfilled, < gives not fulfilled

Task item: Say whether G21U A39G shows self-cleavage of 0.2 or more.
Reply: fulfilled

Task item: Say whether G13A G15C shows self-cleavage of 0.2 or more.
Reply: fulfilled

Task item: Say whether A23G C38G shows self-cleavage of 0.2 or more.
Reply: not fulfilled

Task item: Say whether U2C A39U shows self-cleavage of 0.2 or more.
Reply: fulfilled

Next:
Task item: Say whether A22U G32A shows self-cleavage of 0.2 or more.
Reply: not fulfilled

Task item: Say whether U60G C66G shows self-cleavage of 0.2 or more.
Reply: fulfilled

Task item: Say whether G40C G57C shows self-cleavage of 0.2 or more.
Reply: not fulfilled

Task item: Say whether A24C A26G shows self-cleavage of 0.2 or more.
Reply: fulfilled

Task item: Say whether U2G U7G shows self-cleavage of 0.2 or more.
Reply: fulfilled

Task item: Say whether G34A U60G shows self-cleavage of 0.2 or more.
Reply: fulfilled

Task item: Say whether U52A C65A shows self-cleavage of 0.2 or more.
Reply: fulfilled

Task item: Say whether U2A C48G shows self-cleavage of 0.2 or more.
Reply: not fulfilled

Task item: Say whether C3G C18U shows self-cleavage of 0.2 or more.
Reply: fulfilled

Task item: Say whether U9C A45G shows self-cleavage of 0.2 or more.
Reply: not fulfilled

Task item: Say whether G29A G68A shows self-cleavage of 0.2 or more.
Reply: not fulfilled

Task item: Say whether G13A U67G shows self-cleavage of 0.2 or more.
Reply: not fulfilled

Task item: Say whether U7A U55A shows self-cleavage of 0.2 or more.
Reply: not fulfilled

Task item: Say whether G29U A61C shows self-cleavage of 0.2 or more.
Reply: not fulfilled

Task item: Say whether C10G U33G shows self-cleavage of 0.2 or more.
Reply: fulfilled

Task item: Say whether A39U A64G shows self-cleavage of 0.2 or more.
Reply: not fulfilled

Task item: Say whether G27U C50A shows self-cleavage of 0.2 or more.
Reply: not fulfilled

Task item: Say whether G13C U63C shows self-cleavage of 0.2 or more.
Reply: not fulfilled
